- targetUnderTest: Beta-secretase 2 (Homo sapiens)
- experimentalProtocol: Inhibition of C-terminal His6-tagged human BACE2 expressed in mammalian expression system preincubated for 1 hr followed by substrate addition and measured after 1 hr by FRET assay
IC50 by entry:
Answer in nM, number only, no unit symbol.

{"structureNotation": "NC1=N[C@](CF)(c2cc(NC(=O)c3cnc(Cl)cn3)ccc2F)[C@@H]2C[C@]2(C(F)F)S1", "IC50 / nM": 13.2}

Would you kindly look at the next entry?
"NC1=N[C@](CF)(c2cc(NC(=O)c3cnc(Cl)cn3)cc(F)c2F)[C@H]2[C@@H](S1)C2(F)F" has a reported IC50 of 3.02

---

Protein target, amino acids: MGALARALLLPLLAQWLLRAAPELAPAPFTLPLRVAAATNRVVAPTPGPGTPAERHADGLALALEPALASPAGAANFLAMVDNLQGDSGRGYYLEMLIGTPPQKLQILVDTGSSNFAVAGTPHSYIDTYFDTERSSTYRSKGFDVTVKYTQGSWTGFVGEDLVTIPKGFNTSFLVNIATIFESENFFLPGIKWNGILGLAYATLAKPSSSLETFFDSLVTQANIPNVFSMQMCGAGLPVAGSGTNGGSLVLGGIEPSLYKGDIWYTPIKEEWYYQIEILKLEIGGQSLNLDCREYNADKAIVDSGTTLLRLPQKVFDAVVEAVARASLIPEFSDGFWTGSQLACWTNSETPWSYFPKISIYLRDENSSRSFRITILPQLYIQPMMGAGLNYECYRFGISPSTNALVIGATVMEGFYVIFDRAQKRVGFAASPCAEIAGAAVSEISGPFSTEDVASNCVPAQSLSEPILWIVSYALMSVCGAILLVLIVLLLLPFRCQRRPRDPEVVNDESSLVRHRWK
propertyLabel: Ki (nM)
Answer in nM, number only, no unit symbol.

Look over these answered cases.
{"compound": "COc1cnc2c(Nc3ccc(F)c([C@]4(C)CS(=O)(=O)N(C)C(N)=N4)c3)nccc2c1", "propertyLabel": "Ki", "recordedNumber": 3.5}
{"compound": "CN=[S@@]1(=O)C[C@@](C)(c2cc(NC(=O)c3ccc(Cl)cn3)ccc2F)N=C(N)C1(C)C", "propertyLabel": "Ki", "recordedNumber": 1}
{"compound": "CN1C(=N)N[C@]2(C)c3cc(NC(=O)c4ccc(C#N)cn4)ccc3OCC[C@@H]2S1(=O)=O (relative stereo)", "propertyLabel": "Ki", "recordedNumber": 303}

"CN1C[C@@H](c2cc(NC(=O)c3ccc(C#N)cn3)ccc2F)N=C(N)C(C)(C)S1(=O)=O" has a reported Ki of 32

All values here come from ChEMBL document CHEMBL4342403.
